assay: Encapsulation efficiency of lipid nanoparticles, Quant-it Ribogreen RNA assay; format: physicochemical; details: LNP of lipid/DSPC/cholesterol/PEG-lipid 50:10:38.5:1.5 encapsulating hEPO mRNA
reported-property: Encapsulation Efficiency (%)

CCCCCCCCCCCOC(=O)CCCCCN(CCN(CCO)CCCCCC(=O)OCC(CCCCCCCC)CCCCCCCC)C1CC1 :: 90.52
CCCCCCCCCCCOC(=O)CCCCCN(CCN(CCCCCC(=O)OCC(CCCCCCCC)CCCCCCCC)CCNc1c(NC)c(=O)c1=O)C1CCC1 :: 91.54
CCCCCCCCC(CCCCCCCC)COC(=O)CCCCCN(CCO)CCN(CCCCCOC(=O)OCC(CCCCCCCC)CCCCCCCC)C1CCCCC1 :: 94.56
CCCCCCCCCCCOC(=O)CCOCCN(CCN(CCO)CCOCCC(=O)OCC(CCCCCCCC)CCCCCCCC)C1CCCCC1 :: 89.34
CCCCCCCCC(CCCCCC)CNC(=O)CCCCCN(CC=C(C)C)CCN(CCO)CCCCC(COC(=O)CCCCCCC)COC(=O)CCCCCCC (stereo not drawn) :: 92.71
CCCCCCCCC(CCCCCC)CNC(=O)CCCCCN(CCOCCO)CCN(CCCCC(COC(=O)CCCCCCC)COC(=O)CCCCCCC)C1CCCCCCC1 (stereo not drawn) :: 86.63

====

experiment: Apparent pKa of LNP formulations, TNS fluorescence assay; assay type: physicochemical; conditions: LNP cationic lipid/DSPC/cholesterol/DMG-PEG 50/10/38.5/1.5 mol %
reported-property: Apparent Pka

CCCCCCCC(=O)OCC(CCCCN(CCO)CCCCN(CCCCC(COC(=O)CCCCCCC)COC(=O)CCCCCCC)C1CCCC1)COC(=O)CCCCCCC :: 6.995
CCCCCCCCC(CCCCCCCC)CNC(=O)CCCCCN(CCN(CCCO)CCCCCC(=O)OCC(CCCCCCCC)CCCCCCCC)C1CCC1 :: 6.322
CCCCCCCCC(CCCCCCCC)CC(=O)NCCCCCN(CCN(CCO)CCCCCCOC(=O)C(CCCCCC)CCCCCCCC)C1CCC1 (stereo not drawn) :: 6.732
CCCCCCCCCCCC(=O)OCCCCCN(CCN(CCO)CCCCCOC(=O)CC(CCCCCCCC)CCCCCCCC)C1CCCCC1 :: 6.509
CCCCCCCCC(CCCCCC)COC(=O)CCCCCN(CCCCN(CCO)CCCCC(COC(=O)CCCCCCC)COC(=O)CCCCCCC)C1CC1 (stereo not drawn) :: 6.699
CCCCCCCCC(CCCCCC)CNC(=O)CCCCCCN(CCO)CCN(CCCCC(COC(=O)CCCCCCC)COC(=O)CCCCCCC)C1CCCCCCC1 (stereo not drawn) :: 6.463

====

experiment: Encapsulation efficiency of lipid nanoparticles, Quant-it Ribogreen RNA assay; format: physicochemical; conditions: LNP of lipid/DSPC/cholesterol/PEG-lipid 50:10:38.5:1.5 encapsulating hEPO mRNA
reported-property: Encapsulation Efficiency (%)

CCCCCCCCCCCOC(=O)CCOCCN(CCN(CCO)CCOCCC(=O)OCC(CCCCCCCC)CCCCCCCC)C1CCC1 :: 87.45
CCCCCCCCC(CCCCCCCC)COC(=O)CCCCCN(C)C1CCC(N(CCO)CCCCCC(=O)OCC(CCCCCCCC)CCCCCCCC)CC1 (stereo not shown) :: 97.95
CCCCCCCCC(CCCCCC)CNC(=O)CCCCCN(CCO)CCN(CCCCC(COC(=O)CCCCCCC)COC(=O)CCCCCCC)C1CCCCCCC1 (stereo not shown) :: 88.63
CCCCCCCCCCCOC(=O)CCCCCN(CCN(CCO)CCCCCC(=O)OCC(CCCCCCCCCC)CCCCCCCCCC)C1CCCCC1 :: 91.0
CCCCCCCCC(CCCCCCCC)CNC(=O)CCCCCN(CCNc1c(NC)c(=O)c1=O)CCN(C)CCCCCC(=O)OCC(CCCCCCCC)CCCCCCCC :: 97.00
CCCCCCCCC(CCCCCCCC)COC(=O)CCCCCN(C)CCN(CCO)CCCCCC(=O)OCC(CCCCCCCC)CCCCCCCC :: 97.57
CCCCCCCCC(CCCCCCCC)CNC(=O)CCCCCN(CCN(CCCCCCCCCO)CCCCCC(=O)OCC(CCCCCCCC)CCCCCCCC)C1CCC1 :: 88.18
CCCCCCCCCCCOC(=O)CCCCCN(CCN(CCO)CCCCCC(=O)OCC(CCCCCC)CCCCCCCC)C1CC1 (stereo not shown) :: 93.6
CCCCCCCCOC(CCCCCN(CCO)CCN(CCCCCC(=O)OCC(CCCCCC)CCCCCCCC)C1CCC1)OCCCCCCCC (stereo not shown) :: 94.15
CCCCCCCCCCCOC(=O)CCCCCN1CCC(N(CCO)CCCCCCCC(=O)OC(CCCCCCCC)CCCCCCCC)CC1 :: 91.79
CCCCCCCCC(CCCCCCCC)CC(=O)NCCCCCN(CCN(CCO)CCCCCOC(=O)CC(CCCCCCCC)CCCCCCCC)C1CCCCCC1 :: 92.74
CCCCCCCC(=O)OCC(CCCCN(CCO)CCN(CCCCC(COC(=O)CCCCCCC)COC(=O)CCCCCCC)C1CCCCCCC1)COC(=O)CCCCCCC :: 87.54
CCCCCCCCC(CCCCCCCC)CNC(=O)CCCCCN1CCC(N(CCO)CCCCC(COC(=O)CCCCCCC)COC(=O)CCCCCCC)CC1 :: 93.64
